Source of measurements: PubChem BioAssay (NCI)

- Test system: SW-620 colon
- Assay Procedure: NCI tumour cell line growth inhibition, 48 h
I'd appreciate it if you could supply TGI values for the items below.

Recorded TGI for N#C/C(C(=O)Nc1ccc(Cl)cc1)=C(/N)N1CCCCC1 with SW-620 colon, please?
> 100 µM

# get_value(readout= TGI, system= SW-620 colon) for CCCCCCCCOCC(O)COC(=O)CCCCCCC (centres undefined)
> 100 µM

SW-620 colon / TGI / c1ccc([P+](Cc2ccccc2C[P+](c2ccccc2)(c2ccccc2)c2ccccc2)(c2ccccc2)c2ccccc2)cc1 : value?
> 100 µM

Record lookup: for SW-620 colon, what TGI belongs to COc1ccc(C2CC(c3cc(C)ccc3O)=NC(N)=N2)cc1 (centres undefined) ?
> 100 µM

# returns recorded TGI (system: SW-620 colon) for CC(NC(=O)c1ccccc1)NC(=O)C(C)C(=O)Nc1ccccc1 (centres undefined)
> 100 µM

Item: CNC(=O)SCC(N)C(=O)O (centres undefined) Test system: SW-620 colon Read-out: TGI Value: ?
> 100 µM

For SW-620 colon, provide TGI of Nc1nc(OCc2cc(Br)cs2)c2[nH]cnc2n1 please.
> 100 µM

Request: TGI, test system SW-620 colon, entry CC1(C)Cc2c(C#N)c(N)c3c(c2CO1)C(=O)OC3=O
> 100 µM

GET /values?readout=TGI&system=SW-620 colon&item= CN(C)S(=O)(=O)/N=C/c1cccc(/C=N/S(=O)(=O)N(C)C)c1
> 100 µM

# returns recorded TGI (system: SW-620 colon) for CC(NC(=O)C(N)CC(=O)O)NC(=O)C1CCC1 (centres undefined)
> 100 µM

Recall the recorded TGI for COc1ccc(C(SCC(N)C(=O)O)(c2ccccc2)c2ccccc2)cc1 (centres undefined) with SW-620 colon and state it.
> 100 µM

Enter reported TGI observed with SW-620 colon for Cc1ccc(NC(=O)C(=O)C(C#N)c2nc(-c3ccc(-c4ccccc4)cc3)cs2)c(C)c1 (centres undefined)
> 100 µM

Field: TGI (SW-620 colon). Entry: COC(=O)C(C(=O)C(=O)Nc1nc(=S)[nH][nH]1)c1csc(-n2nc(-c3ccccc3)cc2-c2ccccc2)n1 (centres undefined)
> 100 µM

// fetch SW-620 colon TGI for O=C(Nc1ccccc1)N(C1=NCC(CI)S1)c1ccc(F)cc1F (centres undefined)
> 100 µM

Hi! What's the reported TGI for CC1CC(=O)Nc2ccccc2N1C(=O)CN1CCC(CCCCN(C)C)CC1 (centres undefined) on SW-620 colon?
> 100 µM

Form field: TGI recorded for Cc1ccc(-c2cc(C(F)(F)F)nn2-c2ccc(S(N)(=O)=O)cc2)cc1 with SW-620 colon (enter value)
> 56.3 µM

Please tell me: TGI of COC(=O)C(=O)C(C(=O)C(=O)Nc1nc2ccc(C)cc2s1)c1nc2ccc([N+](=O)[O-])cc2[nH]c1=O (centres undefined) , system SW-620 colon?
> 100 µM

SW-620 colon / TGI / COC1CCN(C(=O)c2cc(Cc3n[nH]c(=O)c4ccccc34)ccc2F)CC1 : value?
> 100 µM

What reported TGI corresponds to Cc1cc(O)ccc1C1=NN(c2ccc(S(C)(=O)=O)cc2)C(=O)CC1 on SW-620 colon?
> 100 µM

Can you look up TGI on SW-620 colon for COc1ccc(C(CC(=O)C(C)(C)CN2CCCCC2)SCCS(=O)(=O)O)cc1 (centres undefined) ?
> 100 µM

Lab note: need TGI with SW-620 colon for entry O=C1c2ccccc2S(=O)(=O)N1CSC(=S)N1CCCCC1 , please look it up.
> 100 µM

Which measured TGI belongs to Cc1nnc2sc(NN)nn12 , tested on SW-620 colon?
> 100 µM

Provide value of TGI for this record tested with SW-620 colon: O=P1(Oc2ccccc2)N(CCCl)CCN1c1ccccc1 (centres undefined)
> 100 µM

Return TGI measured with SW-620 colon given this molecule: c1ccc(-n2nc3ccc4nonc4c3n2)cc1
> 100 µM

====

- Test system: HOP-92 NSCLC
- Assay Procedure: NCI tumour cell line growth inhibition, 48 h
Metric Name: log10 of TGI (log10 of the value in µM)
In plain terms, each number is the log10 of measured TGI in µM.

Form field: log10 of TGI recorded for COc1ccc2c(CN3CCC(C(=O)O)CC3)cc3cc4c(cc3c2c1)OCO4 with HOP-92 NSCLC (enter value)
0.73

Lab note: need log10 of TGI with HOP-92 NSCLC for entry CC1=CC[C@@]2(CO)[C@@H]([C@@H]1C)[C@H]1CC[C@@H]3[C@@]4(C)CC[C@H](O)C(C)(C)[C@@H]4CC[C@@]3(C)[C@]1(C)C[C@@H]2O , please look it up.
1.64

Record lookup: for HOP-92 NSCLC, what log10 of TGI belongs to COc1ccc2c(c1)[nH]c(=O)c1c3cc(OC)ccc3cn21 ?
0.32

Short answer please: log10 of TGI, HOP-92 NSCLC, entry CCC(=O)c1ccc2[nH]c3c(C)c4c(=O)cc(C)[nH]c4c(C)c3c2c1
1.92

Form field: log10 of TGI recorded for CC(=O)O[C@H]1/C(=C/c2ccncc2)C[C@H]2[C@@H]3CC=C4C[C@@H](N5CCCC5)CC[C@]4(C)[C@H]3CC[C@]12C with HOP-92 NSCLC (enter value)
1.30

Lab note: need log10 of TGI with HOP-92 NSCLC for entry COc1ccc2c(c1)[n+](=O)c(C(=O)c1ccco1)c(C(F)(F)F)n2[O-] , please look it up.
1.29

====

- System: ACHN renal
- Assay Procedure: NCI tumour cell line growth inhibition, 48 h
I'd be grateful if you could share measured TGI for these entries.
Lab book: enter the figure in µM, no units written.

Which TGI value is on record for O=C(c1ccccc1)c1ccc(-n2c3ccccc3c3ccc4c(c32)C(=O)C=CC4=O)cc1 ?
11.6

Would you mind telling me what TGI value was observed for CN(C)c1ccc(N=C2C=CC(=[N+](C)C)C=C2)cc1 ?
37.5

Sample COc1ccc2c(c1)[n+](=O)c(C(=O)c1ccco1)c(C(F)(F)F)n2[O-] — what was its TGI?
2.53

# input molecule: CC1(C)C(O)C[C@@H](O)[C@@]2(C)C1CC[C@]1(C)C2C[C@@H](O)[C@@H]2C([C@@]3(C)CC[C@@H](C(C)(C)O)O3)CCC21C (stereo not given in full) ; wanted: its TGI
35.8

====

For each entry below, report its TGI value.
- Test system: HCT-15 colon
- Assay Procedure: NCI tumour cell line growth inhibition, 48 h

Any idea what its TGI is? The compound is CCOC(=O)n1cc(C2=C(c3cn(C)c4ccccc34)COC2=O)c2ccccc21
> 63 µM

What measured TGI goes with CCC(=O)c1ccc2[nH]c3c(C)c4c(=O)cc(C)[nH]c4c(C)c3c2c1 ?
> 100 µM

Quick one: TGI of COc1cc(OC)c2nc(C)c3c(c2c1)NCC3 ?
25.9 µM

Value lookup for TGI; key = C/C(=C\CCc1ccoc1)CC/C=C(\C)CCCN1CCOCC1
11.8 µM

Which TGI reading was recorded for the compound COC(CC1(/C=C/O[Si](C(C)C)(C(C)C)C(C)C)C(=O)N(C)c2ccccc21)OC (stereo not drawn) ?
> 100 µM

So what's the measured TGI for this one? c1ccc(CNCCCCNCCCNCc2ccccc2)cc1
39.4 µM

Consider the compound O=C(c1ccccc1)N1C2CCC1C(C(F)(F)F)=C2C(F)(F)F and give its measured TGI.
> 100 µM

Quick check: TGI of CCCC(=O)NC1CCc2cc(OC)c(OC)c(OC)c2-c2ccc(OC)c(=O)cc21 (stereo not drawn) ?
25.5 µM

Data request, read-out TGI, for CC(NC(=O)c1ccccc1)NC(=O)C(C)C(=O)Nc1ccccc1 (stereo not drawn)
> 100 µM

# get_value(readout='TGI', item= Cc1ccc(N=Nc2ccc(O)c(CN(C)C)c2)cc1 )
50.2 µM

Which TGI is reported for this compound? Cc1cc(S(=O)(=O)Nc2cc(N)[nH]n2)c(SCc2nc(N)nc(N(C)C)n2)cc1Cl
> 10 µM

# TGI lookup, item Cc1nc2c(=O)n(-c3ccccc3)c3ccccc3c2o1
> 100 µM

Which TGI value is on record for CC(SC(=S)N1CCOCC1)C(=O)Nc1nnc(-c2ccccc2)o1 (stereo not drawn) ?
> 100 µM

====

Can you tell me TGI for the items I'm about to list?
- System: BT-549 breast
- Assay Procedure: NCI tumour cell line growth inhibition, 48 h

Fill in the blank: the reported TGI of C=C(C)[C@H]1C=C[C@@H](OC(=O)c2cccnc2)[C@@]23CO[C@@](C)([C@H](OC(=O)c4cccnc4)[C@@]4(OC(C)=O)C[C@H](C)[C@H](OCCC)[C@@H]4[C@H]2OC(C)=O)[C@H]13 is ____.
> 15 µM

Requested field: TGI. Item: NC(=O)c1ccc(NN=O)nc1
> 100 µM

// query TGI value for entry [O-][n+]1ccccc1S
> 100 µM

Name the reported TGI value associated with the compound COc1cc(OC)c(/C=C\c2cc(/C=C/c3c(OC)cc(OC)cc3OC)c3ccccc3[n+]2C)c(OC)c1
> 24.7 µM

TGI for CNC(=O)N(CCC#N)CCCN(C(=O)NC)c1ccccc1 ?
> 100 µM

Look up TGI for this compound: CCN(CC)CCNC(=O)c1cc2cc(NC(=O)c3cc4cc(NC(=O)c5cc6cc(N)ccc6[nH]5)ccc4[nH]3)ccc2[nH]1
> 100 µM

State the recorded TGI for this entry: N#Cc1ccccc1NC(=O)C(=O)c1c(O)c2ccccc2oc1=O
> 100 µM

I'd like to know its TGI. The compound in question is COc1cc2cccc(N)c2cc1OC
> 92.6 µM

Returns the measured TGI for the input compound. Input: CC1CC[C@@]2(OC1)OC1CC3C4CCC5C[C@@H](OC6OC(CO)C(OC7OC(CO)C(O)C(OC8OC(CO)C(O)C(OC9OC(CO)C(O)C(O)C9O)C8O)C7OC7OC(CO)C(O)C(O)C7O)C(O)C6O)[C@H](O)C[C@]5(C)C4CC[C@]3(C)C1[C@@H]2C (some centres not stated)
> 80.5 µM

Quick check: TGI of CC(SC(=S)N1CCOCC1)C(=O)Nc1nnc(-c2ccccc2)o1 (configuration not stated) ?
> 100 µM

Record request: TGI value, item S=C1CC(c2ccccc2)Sc2ccccc2N1 (configuration not stated)
> 100 µM

Dear colleague, I am looking for the recorded TGI of the following compound: O=C1Nc2c(C(F)(F)F)cccc2[C@@]1(c1ccc(O)cc1)c1ccc(OC(F)(F)F)cc1
< 0.0132 µM

Any idea what its TGI is? The compound is C=C(C)[C@@H]1CC[C@]2(C(=O)O)CC[C@]3(C)[C@H](CC[C@@H]4[C@@]5(C)C[C@@H](CC#Cc6ccc(C(F)(F)F)cc6)[C@H](O)C(C)(C)[C@@H]5CC[C@]43C)[C@@H]12
> 100 µM

Looking for the measured TGI of O=C(O)c1cc(/C=C/c2cc(O)ccc2O)ccc1O , can you help?
> 10 µM

What value of TGI has been reported for the following compound? CC(=O)NC(CCC(=O)C=[N+]=N)C(=O)O (configuration not stated)
> 100 µM

Please look up its TGI: CS(=O)(=O)Nc1ccc(-c2cc(-c3ccccc3)cc(C(N)=O)c2N)cc1
> 25 µM

If you can, please state the reported TGI value of O=c1oc2ccccc2c(O)c1/C=N/C(=S)NCCc1ccccc1 .
> 84.7 µM

If you can, please state the reported TGI value of COc1ccc2cc(C(=O)O)ccc2c1OC .
> 100 µM

Consider the compound shown here: Cc1nnc2sc(NN)nn12 What is its recorded TGI?
> 100 µM

Record request: TGI value, item CC(C)NC(=O)OCc1c(COC(=O)NC(C)C)c(-c2cc[n+](COC(=O)C(C)(C)C)cc2)n2c1CCC2
> 100 µM

Using the record for CC(=O)Nc1ccc2[nH]c(-c3cccc(Cl)c3)cc(=O)c2c1 , report its TGI.
> 100 µM

Record request: TGI value, item Cc1ccc(-c2cc3c(SCC(=O)Nc4cc(C(F)(F)F)ccc4Cl)nccn3n2)cc1
> 100 µM
